molecular target: Integrin alpha-4/beta-1 (Homo sapiens, UniProt P05556+P13612); assay: Inhibition of human VCAM binding to VLA-4 of Ramos cells in ELISA; assay type: cell-based
Sequence (P05556 whole entry): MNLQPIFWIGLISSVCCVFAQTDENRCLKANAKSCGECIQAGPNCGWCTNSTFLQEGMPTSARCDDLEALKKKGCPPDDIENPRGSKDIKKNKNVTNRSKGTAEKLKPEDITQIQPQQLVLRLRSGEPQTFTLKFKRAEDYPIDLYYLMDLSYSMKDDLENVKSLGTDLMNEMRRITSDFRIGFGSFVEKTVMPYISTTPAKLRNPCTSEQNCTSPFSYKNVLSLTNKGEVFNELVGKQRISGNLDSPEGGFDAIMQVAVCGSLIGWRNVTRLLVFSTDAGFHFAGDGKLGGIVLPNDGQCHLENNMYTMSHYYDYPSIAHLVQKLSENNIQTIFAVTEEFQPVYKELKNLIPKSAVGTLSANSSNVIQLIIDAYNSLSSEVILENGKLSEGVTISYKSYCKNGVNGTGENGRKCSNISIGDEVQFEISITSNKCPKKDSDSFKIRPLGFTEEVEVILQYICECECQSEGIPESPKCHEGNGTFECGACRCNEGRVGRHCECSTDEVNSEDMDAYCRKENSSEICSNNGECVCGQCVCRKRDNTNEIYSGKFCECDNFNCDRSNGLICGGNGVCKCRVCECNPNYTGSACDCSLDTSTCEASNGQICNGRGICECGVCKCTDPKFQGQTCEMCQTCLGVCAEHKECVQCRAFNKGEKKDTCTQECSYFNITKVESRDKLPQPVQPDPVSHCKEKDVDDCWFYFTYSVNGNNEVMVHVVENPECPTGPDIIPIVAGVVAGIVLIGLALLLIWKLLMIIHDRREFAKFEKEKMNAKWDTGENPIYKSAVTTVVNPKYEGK
Sequence (P13612 whole entry): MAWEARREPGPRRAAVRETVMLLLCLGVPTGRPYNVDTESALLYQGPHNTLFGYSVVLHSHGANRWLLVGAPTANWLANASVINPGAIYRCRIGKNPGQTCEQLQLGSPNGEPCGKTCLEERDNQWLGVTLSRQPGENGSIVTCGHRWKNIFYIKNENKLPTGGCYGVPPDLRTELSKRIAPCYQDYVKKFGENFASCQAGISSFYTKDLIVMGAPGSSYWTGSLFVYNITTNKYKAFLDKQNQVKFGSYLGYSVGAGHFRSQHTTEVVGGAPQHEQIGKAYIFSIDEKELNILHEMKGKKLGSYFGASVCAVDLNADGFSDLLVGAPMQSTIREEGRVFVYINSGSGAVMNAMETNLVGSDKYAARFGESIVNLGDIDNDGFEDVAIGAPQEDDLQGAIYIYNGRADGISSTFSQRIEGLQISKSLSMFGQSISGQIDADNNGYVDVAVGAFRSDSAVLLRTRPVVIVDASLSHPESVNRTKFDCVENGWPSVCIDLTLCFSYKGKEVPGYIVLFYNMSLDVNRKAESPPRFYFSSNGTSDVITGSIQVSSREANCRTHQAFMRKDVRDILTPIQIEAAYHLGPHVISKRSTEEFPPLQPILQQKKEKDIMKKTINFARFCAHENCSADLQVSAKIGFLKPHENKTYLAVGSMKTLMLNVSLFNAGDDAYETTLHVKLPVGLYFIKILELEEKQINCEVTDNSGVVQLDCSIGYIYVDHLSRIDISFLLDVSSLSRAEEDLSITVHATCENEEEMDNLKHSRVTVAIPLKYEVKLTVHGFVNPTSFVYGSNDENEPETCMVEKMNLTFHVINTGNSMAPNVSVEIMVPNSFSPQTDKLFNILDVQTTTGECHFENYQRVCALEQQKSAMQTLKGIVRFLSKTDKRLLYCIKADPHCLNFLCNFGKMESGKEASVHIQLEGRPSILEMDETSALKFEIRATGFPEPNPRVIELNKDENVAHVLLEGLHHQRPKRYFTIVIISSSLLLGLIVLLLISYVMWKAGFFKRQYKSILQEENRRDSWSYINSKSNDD
QUANTITY: IC50
A complete answer gives the number followed by the unit.

Examples with answers:
[[record]]
molecule = "O=C(O)[C@H](Cc1ccc(N2C(=O)CCC(c3ccccc3)C2=O)cc1)NC(=O)[C@@H]1CCC(=O)N1Cc1ccccc1 (stereo partly drawn)"
reported_result = "0.99 nM"

[[record]]
molecule = "O=C(O)[C@H](Cc1ccc(N2C(=O)CC3(CCCC3)CC2=O)cc1)NC(=O)[C@@H]1CCC(=O)N1Cc1ccccc1"
reported_result = "0.54 nM"

[[record]]
molecule = "O=C(O)[C@H](Cc1ccc(N2CCCC2=O)cc1)NC(=O)[C@@H]1CCC(=O)N1Cc1ccccc1"
reported_result = "16 nM"

[[record]]
molecule = "CC(C)CC1CC(=O)N(c2ccc(C[C@H](NC(=O)[C@@H]3CCC(=O)N3Cc3ccccc3)C(=O)O)cc2)C1=O (stereo partly drawn)"
reported_result = "0.76 nM"

[[record]]
molecule = "O=C(Nc1ccc(C[C@H](NC(=O)[C@@H]2CCC(=O)N2Cc2ccccc2)C(=O)O)cc1)c1c(Cl)cccc1Cl"
reported_result = "0.37 nM"

[[record]]
molecule = "O=C(O)[C@H](Cc1ccc(N2C(=O)Cc3ccccc3C2=O)cc1)NC(=O)[C@@H]1CCC(=O)N1Cc1ccccc1"
reported_result = "0.98 nM"

[[record]]
molecule = "O=C(O)[C@H](Cc1ccc(N2C(=O)c3ccccc3C2=O)cc1)NC(=O)[C@@H]1CCC(=O)N1Cc1ccccc1"
reported_result = "0.52 nM"

[[record]]
molecule = "O=C(O)[C@H](Cc1ccc(N2C(=O)CC(Cc3ccccc3)C2=O)cc1)NC(=O)[C@@H]1CCC(=O)N1Cc1ccccc1 (stereo partly drawn)"
reported_result = "0.94 nM"

[[record]]
molecule = "O=C(O)[C@H](Cc1ccc(N2C(=O)CCC2=O)cc1)NC(=O)[C@@H]1CCC(=O)N1Cc1ccccc1"
reported_result = "3.2 nM"

[[record]]
molecule = "O=C(O)[C@H](Cc1ccc(N2C(=O)c3ccncc3C2=O)cc1)NC(=O)[C@@H]1CCC(=O)N1Cc1ccccc1"
reported_result = "4.3 nM"


Query block: Look up IC50: O=C(O)[C@H](Cc1ccc(N2C(=O)CC(c3ccccc3)C2=O)cc1)NC(=O)[C@@H]1CCC(=O)N1Cc1ccccc1 (stereo partly drawn)
Result block: 1.7 nM

Query block: Query: IC50; subject: O=C(O)[C@H](Cc1ccc(N2C(=O)CC(c3ccc(O)cc3)C2=O)cc1)NC(=O)[C@@H]1CCC(=O)N1Cc1ccccc1 (stereo partly drawn)
Result block: 2.6 nM

Query block: What does the record list as IC50 for O=C(O)[C@H](Cc1ccc(N2Cc3ccccc3C2=O)cc1)NC(=O)[C@@H]1CCC(=O)N1Cc1ccccc1 ?
Result block: 2.7 nM

---

The entries below come with measured pIC50 values attached.
molecular target: Integrin alpha-4/beta-1 (Homo sapiens, UniProt P05556+P13612); test: Inhibition of human VCAM and Ramos cell VLA-4 interaction; type: cell-based
API: returns pIC50 as number; meaning -log10 of concentration in mol/L.

Answered cases to consult:
[[record]]
molecule = "O=C(O)[C@H](Cc1ccc(N2C(=O)CC(Cc3ccccc3)C2=O)cc1)NC(=O)[C@@H]1CCC(=O)N1Cc1ccccc1 (some centres not stated)"
reported_result = 6.91

[[record]]
molecule = "CC(C)CC1CC(=O)N(c2ccc(C[C@H](NC(=O)[C@@H]3CCC(=O)N3Cc3ccccc3)C(=O)O)cc2)C1=O (some centres not stated)"
reported_result = 7.39

[[record]]
molecule = "O=C(O)[C@H](Cc1ccc(N2C(=O)c3ccncc3C2=O)cc1)NC(=O)[C@@H]1CCC(=O)N1Cc1ccccc1"
reported_result = 6.19

[[record]]
molecule = "O=C(O)[C@H](Cc1ccc(N2C(=O)CC3(CCCC3)CC2=O)cc1)NC(=O)[C@@H]1CCC(=O)N1Cc1ccccc1"
reported_result = 7.24

[[record]]
molecule = "O=C(O)[C@H](Cc1ccc(N2Cc3ccccc3C2=O)cc1)NC(=O)[C@@H]1CCC(=O)N1Cc1ccccc1"
reported_result = 6.30


Query block: Fill in the recorded pIC50 for this molecule, with Integrin alpha-4/beta-1 (Homo sapiens, UniProt P05556+P13612) as test system: O=C(Nc1ccc(C[C@H](NC(=O)[C@@H]2CCC(=O)N2Cc2ccccc2)C(=O)O)cc1)c1c(Cl)cccc1Cl
Result block: 7.92

Query block: Short answer please: pIC50, Integrin alpha-4/beta-1 (Homo sapiens, UniProt P05556+P13612), entry O=C(O)[C@H](Cc1ccc(N2C(=O)CCC(c3ccccc3)C2=O)cc1)NC(=O)[C@@H]1CCC(=O)N1Cc1ccccc1 (some centres not stated)
Result block: 6.74
